Recorded measurements of IC50, one per entry
molecular target: Cbl-b (Homo sapiens (Human)); assay: Cbl-b displacement assay (Cbl-b inhibition assay), Biological Example 1; format: binding; conditions: read-out: IC50 values in the Cbl-b inhibition assay of Biological Example 1
Sequence (Q13191 36-427): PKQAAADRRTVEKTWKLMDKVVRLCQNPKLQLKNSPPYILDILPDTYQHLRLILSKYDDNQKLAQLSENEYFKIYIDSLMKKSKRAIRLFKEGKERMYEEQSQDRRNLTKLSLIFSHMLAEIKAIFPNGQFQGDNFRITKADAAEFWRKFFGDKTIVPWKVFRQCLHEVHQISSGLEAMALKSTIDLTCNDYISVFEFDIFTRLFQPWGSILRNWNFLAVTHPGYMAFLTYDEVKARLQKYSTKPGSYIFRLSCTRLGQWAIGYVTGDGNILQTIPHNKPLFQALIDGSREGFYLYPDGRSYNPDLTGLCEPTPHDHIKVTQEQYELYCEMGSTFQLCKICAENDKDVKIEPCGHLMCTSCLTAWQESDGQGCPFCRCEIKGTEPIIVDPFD

Cn1cnnc1C[C@]1(c2cccc(N3Cc4c(cc(CN5CCO[C@H](C(F)(F)F)C5)cc4C(F)(F)F)C3=O)c2)C[C@H](C#N)C1 = 1 to 2 nM

(Q) Entry under review: C[C@@H]1CN(C(C)(C)c2cc3c(c(C(F)(F)F)c2)CN(c2cccc([C@]4(Cc5nncn5C)C[C@@H](C#N)C4)c2)C3=O)CCO1 . Reported IC50?
(A) 2 to 5 nM

(Q) Try C[C@@H]1CN(Cc2cc3c(c(C(F)(F)F)c2)CN(c2cccc([C@]4(Cc5nncn5C)C[C@@H](CC#N)C4)c2)C3=O)CCC1(F)F next.
(A) ≥ 20 nM

(Q) And what about the compound C[C@@H]1CN(Cc2cc3c(c(C(F)(F)F)c2)CN(c2cccc([C@]4(Cc5nncn5C)C[C@@H](C#N)C4)c2)C3=O)CCO1 ?
(A) 2 to 5 nM

(Q) Please give the result for C[C@@H]1CN(Cc2cc3c(c(C(F)(F)F)c2)CN(c2cccc([C@]4(Cc5nncn5C)C[C@@H](C#N)C4)c2)C3=O)CCC1(F)F too.
(A) 1 to 2 nM

(Q) Continue with COCC1COCCN(Cc2cc3c(c(C(F)(F)F)c2)CN(c2cccc([C@]4(Cc5nncn5C)C[C@@H](C#N)C4)c2)C3=O)C1 (stereo partly drawn)
(A) 5 to 20 nM

(Q) Subsequent entry: Cn1cnnc1C[C@]1(c2cccc(N3Cc4c(cc(CN5CCCC(F)(F)CC5)cc4C(F)(F)F)C3=O)c2)C[C@H](C#N)C1
(A) 1 to 2 nM

(Q) Repeat for the following compound: C[C@H]1CCCN(Cc2cc3c(c(C4CC4)n2)CN(c2cccc([C@]4(Cc5nncn5C)C[C@@H](C#N)C4)c2)C3=O)C1
(A) 1 to 2 nM

(Q) // next record Cc1cc(C(=O)Nc2cccc([C@]3(Cc4nncn4C)C[C@@H](C#N)C3)c2)nc(C2CC2)n1
(A) 2 to 5 nM
